Tested on: NCI-H522 lung
Assay: NCI tumour cell line growth inhibition, 48 h; in the data active means GI50 below about 0.43 µM; inactive means the rest
Your response should consist of one outcome taken from active, inactive

COc1ccc2c(c1)C(=O)c1c-2c(N2CCNCC2)nc2ccccc12 : inactive
C=CCCCOC1[C@H](OCc2ccccc2)C(OCc2ccccc2)C(OC)O[C@@H]1CNC(=O)c1cccc(I)c1 (stereo partly drawn) : inactive
O=C1CSC(c2ccccc2O)N1c1nnc(Cn2ccnc2)o1 (stereo not drawn) : inactive
Cc1cc(NC(=O)c2cnc(N3CCN(CCOCCOCCOCCOCCC(=O)N[C@H](C(=O)N4C[C@H](O)C[C@H]4C(=O)N[C@@H](C)c4ccc(-c5scnc5C)cc4)C(C)(C)C)CC3)cn2)c2ncccc2c1 : inactive
COc1ccc(-c2ccc(/C=N/n3c(COc4ccccc4Cl)n[nH]c3=S)o2)c([N+](=O)[O-])c1 : inactive
C=C1C(=O)O[C@H]2[C@H]1CC/C(CNC(=O)/C=C/c1ccccc1)=C\CC[C@@]1(C)O[C@@H]21 : active

In: // return assay outcome for COc1cccc(C2C(C#N)=C(N)Oc3c2ccc2ccccc32)c1 (stereo not drawn)
Out: active

In: // return assay outcome for O=C1CCC(N2C(=O)c3cccc(NCCCC4CCN(CCNC(=O)c5cc6c(o5)C(=O)c5ccccc5C6=O)CC4)c3C2=O)C(=O)N1 (stereo not drawn)
Out: inactive

----------
System: SK-MEL-28 melanoma
Test: NCI tumour cell line growth inhibition, 48 h
Examples of molecules with documented TGI follow.

COc1ccc(-c2ccc(/C=N/n3c(COc4ccccc4Cl)n[nH]c3=S)o2)c([N+](=O)[O-])c1 : > 100 µM
O=C1CCC2(O)C3Cc4ccc(Oc5nnnn5-c5ccccc5)c5c4C2(CCN3CC2CC2)C1O5 (configuration not stated) : 30.8 µM
COC(=O)/C(C#N)=C1\CCc2ccccc21 : > 100 µM
O=C(O)[C@@H](NS(=O)(=O)c1ccc2ccccc2c1)c1ccccc1 : > 100 µM
N=C(N)c1ccc(-c2ccc(-c3ccc(Cl)cc3)s2)nc1 : 2.97 µM

Cn1c2c(c3ccccc31)CCN1C(=O)C3SC21C1C(=O)N(c2ccccc2)C(=O)C31 (configuration not stated) has a reported TGI of > 100 µM

`COc1cc([C@H]2Oc3c(OC)cc(CCCO)cc3[C@@H]2CO)ccc1O` has a reported TGI of > 100 µM

----------
System: COLO 205 colon
Experiment: NCI tumour cell line growth inhibition, 48 h
Examples of compounds with documented TGI follow.
// return numeric value only (unit: µM, not printed)

Record excerpt, results attached:
CN(CCc1ccc(Cl)c(Cl)c1)CCN(C)CCN1CCCC1 : 5.3
NNc1c2ccccc2nc2ccccc12 : 18.3
COc1ccc2c(c1)C(=O)c1c-2c(N2CCNCC2)nc2ccccc12 : 3.28

# input for lookup
`Nc1ccc(-c2nc3ccc(F)cc3s2)cc1` has a reported TGI of 33.2

----------
Tested on: RPMI-8226 leukemia
Test: NCI tumour cell line growth inhibition, 48 h
reported.property: GI50

Record excerpt, results attached:
N.N.N.N.N.O=S(=O)([O-])C(F)(F)F.O=S(=O)([O-])C(F)(F)F.[Os+8] : 8700 nM
O=C1CCC(N2C(=O)c3cccc(NCCCC4CCN(CCNC(=O)c5cc6c(o5)C(=O)c5ccccc5C6=O)CC4)c3C2=O)C(=O)N1 (stereo not drawn) : 1700 nM

# input for lookup
GI50 for RPMI-8226 leukemia with input `COc1ccc2c(c1)/C(=C\c1c[nH]c3ccc(OC)cc13)C(=O)N2` equals 2390 nM

----------
Examples of molecules with documented GI50 follow.
System: CCRF-CEM leukemia
Test: NCI tumour cell line growth inhibition, 48 h

Record excerpt, results attached:
N.N.N.N.N.O=S(=O)([O-])C(F)(F)F.O=S(=O)([O-])C(F)(F)F.[Os+8] : 6.89 µM
Nc1ncccc1-c1nc2ccc(-c3ccccc3)nc2n1-c1ccc(C2(N)CCC2)cc1 : 0.437 µM
O=C1/C(=C/c2cccc(Br)c2)COc2ccc(O)c(O)c21 : 0.312 µM
COc1ccc2c(c1)C(=O)c1c-2n(CCCN)c(=O)c2cc([N+](=O)[O-])ccc12 : < 0.01 µM

`O=c1c(-c2ccccc2)coc2cc(OC/C(=N/O)c3ccc(F)cc3)ccc12` has a reported GI50 of 26 µM

`CC(=O)[CH-]C(=O)Nc1ccccc1.CC(=O)[CH-]C(=O)Nc1ccccc1.CC[O-].CC[O-].[Ti+4]` has a reported GI50 of > 100 µM

CC(=O)OC(C)C(OC(C)=O)C(OC(C)=O)C(/C=C/C1CC=CC(=O)O1)OC(C)=O (configuration not stated) has a reported GI50 of 30.3 µM

`CC(=O)O.CC(=O)O.CC(=O)O.CC(=O)O.[Rh].[Rh]` has a reported GI50 of 5.1 µM

CCN(CC)CCC(CNc1c(C)cnc2cc(Cl)ccc12)c1ccc(Cl)cc1 (configuration not stated) has a reported GI50 of 4.32 µM

`O=S(=O)(NC1=NCCN1C(=S)SN1CCn2c1nsc2=S)c1cccc(OC(F)(F)F)c1` has a reported GI50 of 2.16 µM

`NNc1c2ccccc2nc2ccccc12` has a reported GI50 of 0.688 µM

`COc1cc(OC)cc(-c2n/c(=C\c3c(O)[nH]c4ccc(Cl)cc34)cc3c2=Nc2ccccc2-3)c1` has a reported GI50 of 3.34 µM

Cn1c2c(c3ccccc31)CCN1C(=O)C3SC21C1C(=O)N(c2ccccc2)C(=O)C31 (configuration not stated) has a reported GI50 of 53.4 µM

----------
Examples of compounds with documented TGI follow.
Test system: MCF7 breast
Test: NCI tumour cell line growth inhibition, 48 h
// return numeric value only (unit: µM, not printed)

CC1(C)CCCCCCCCCC(C)(CCCCCCCCCCCCO)C1=O (configuration not stated) : 30.5
COc1ccc(-c2ccc(/C=N/n3c(COc4ccccc4Cl)n[nH]c3=S)o2)c([N+](=O)[O-])c1 : 40.5
O=C(O)COc1ccc(C(=O)/C(SS/C(C(=O)c2ccc(OCC(=O)O)c(Cl)c2Cl)=C2\C=C(c3ccc(Br)cc3)SS2)=C2/C=C(c3ccc(Br)cc3)SS2)c(Cl)c1Cl : 13.2

TGI for MCF7 breast with input `O=S(=O)(NC1=NCCN1C(=S)SN1CCn2c1nsc2=S)c1cccc(OC(F)(F)F)c1` equals 17.2

TGI for MCF7 breast with input `O=c1cccc(C#CC#CCCCO)o1` equals 38.3

----------
Examples of compounds with documented TGI follow.
Test system: HCT-15 colon
Assay: NCI tumour cell line growth inhibition, 48 h

Cc1nn(C)c2nc3ccc(Cl)cc3c(-c3ccccc3)c12 : > 100 µM
N.N.N.N.N.O=S(=O)([O-])C(F)(F)F.O=S(=O)([O-])C(F)(F)F.[Os+8] : 56.4 µM
CN1CCc2c1nc(-c1cccnc1)c1c2N(C)CC1 : > 100 µM
CCNc1ncnc2c1nnn2CC : > 100 µM

TGI for HCT-15 colon with input `COc1cc(/C=N\NC(=O)C[N+](C)(C)C)cc(OC)c1OC` equals > 10 µM

TGI for HCT-15 colon with input `N#CC(C#N)=C(N)/C(C#N)=C/c1ccc2[nH]ccc2c1` equals > 100 µM

TGI for HCT-15 colon with input `Clc1nc(Nc2nc3ccccc3[nH]2)nc(Cl)c1Cc1ccccc1` equals > 100 µM

TGI for HCT-15 colon with input Nc1ncnc2c1nnn2C1C=C(CO)C(O)C1O (stereo not drawn) equals > 100 µM

----------
System: HCT-15 colon
Assay: NCI tumour cell line growth inhibition, 48 h
Examples of molecules with documented TGI follow.
// return numeric value only (unit: µM, not printed)

C[C@H]1c2ccccc2CN1CCCOc1cc2c(cc1OCC1CC1)C1(CCCC1)C(N)=N2 : 5.1

# input for lookup
`CCC[CH2][Sn]([CH2]CCC)([O]C(=O)/C=C/c1ccccc1F)[O]C(=O)/C=C/c1ccccc1F` has a reported TGI of 1.95

----------
Examples of compounds with documented TGI follow.
Tested on: A498 renal
Experiment: NCI tumour cell line growth inhibition, 48 h
// return numeric value only (unit: µM, not printed)

Record excerpt, results attached:
N.N.N.N.N.O=S(=O)([O-])C(F)(F)F.O=S(=O)([O-])C(F)(F)F.[Os+8] : 29.5
CCOC(=O)C1=C(C)N2C(=NC3=C(CCC/C3=C\c3ccc(Cl)cc3)C2c2ccc(Cl)cc2)S1 (centres undefined) : 3.09
CCC[CH2][Sn]([CH2]CCC)([O]C(=O)/C=C/c1ccccc1F)[O]C(=O)/C=C/c1ccccc1F : 2.29

`CC(=O)O.CC(=O)O.CC(=O)O.CC(=O)O.[Rh].[Rh]` has a reported TGI of 37.2

`C=C1C(=O)O[C@H]2[C@H]1CC/C(CNC(=O)/C=C/c1ccccc1)=C\CC[C@@]1(C)O[C@@H]21` has a reported TGI of 4
